Target: FimH (Escherichia coli);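 further: concentration in nM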
Construct: endogenous in cells; host or cells: E. coli UTI89 whole bacteria, agglutinating guinea pig red blood cells
Sequence (P08190 24-167, other chains not shown): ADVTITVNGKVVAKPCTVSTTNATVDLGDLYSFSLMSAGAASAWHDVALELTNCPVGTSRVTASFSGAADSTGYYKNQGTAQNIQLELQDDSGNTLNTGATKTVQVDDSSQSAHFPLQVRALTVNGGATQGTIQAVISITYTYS
Assay type: cell-based
Settings: concentration reducing bacterial agglutination of guinea pig red blood cells by greater than 90%; UTI89 bacteria
value.type: HAI titer EC > 90

Example results:
[
  {
    "structure.as.smiles": "COc1cc(F)cc(-c2ccc([C@@H](O)[C@H]3O[C@H](CO)[C@@H](O)[C@H](O)[C@@H]3O)c(C)c2)c1",
    "HAI titer EC > 90": "“++++” (<50 “++++”)"
  },
  {
    "structure.as.smiles": "Cc1cc(-c2cc(F)cc(Cl)c2)ccc1[C@@H](O)[C@H]1O[C@H](CO)[C@@H](O)[C@H](O)[C@@H]1O",
    "HAI titer EC > 90": "“++++” (<50 “++++”)"
  },
  {
    "structure.as.smiles": "Cc1cc(-c2ccc(C(F)(F)F)c(F)c2)ccc1[C@@H](O)[C@H]1O[C@H](CO)[C@@H](O)[C@H](O)[C@@H]1O",
    "HAI titer EC > 90": "“++++” (<50 “++++”)"
  },
  {
    "structure.as.smiles": "Cc1ccc(-c2ccc([C@@H](O)[C@H]3O[C@H](CO)[C@@H](O)[C@H](O)[C@@H]3O)c(C)c2)cc1F",
    "HAI titer EC > 90": "“+++” (50-200 “+++”)"
  },
  {
    "structure.as.smiles": "COc1cc(Cl)c(Cl)cc1-c1ccc([C@@H](O)[C@H]2O[C@H](CO)[C@@H](O)[C@H](O)[C@@H]2O)c(C)c1",
    "HAI titer EC > 90": "“++++” (<50 “++++”)"
  }
]

HAI titer EC > 90 in this record for "Cc1cc(-c2ccc(C3CC3)c(F)c2)ccc1[C@@H](O)[C@H]1O[C@H](CO)[C@@H](O)[C@H](O)[C@@H]1O" : “+++” (50-200 “+++”)

All values here come from patent US12552824B2.
